Target: T1, human gastric inhibitory peptide receptor (GIPR) (human, UniProt P48546 22-466); also: reference of the scale not given here
T1 sequence (looked up): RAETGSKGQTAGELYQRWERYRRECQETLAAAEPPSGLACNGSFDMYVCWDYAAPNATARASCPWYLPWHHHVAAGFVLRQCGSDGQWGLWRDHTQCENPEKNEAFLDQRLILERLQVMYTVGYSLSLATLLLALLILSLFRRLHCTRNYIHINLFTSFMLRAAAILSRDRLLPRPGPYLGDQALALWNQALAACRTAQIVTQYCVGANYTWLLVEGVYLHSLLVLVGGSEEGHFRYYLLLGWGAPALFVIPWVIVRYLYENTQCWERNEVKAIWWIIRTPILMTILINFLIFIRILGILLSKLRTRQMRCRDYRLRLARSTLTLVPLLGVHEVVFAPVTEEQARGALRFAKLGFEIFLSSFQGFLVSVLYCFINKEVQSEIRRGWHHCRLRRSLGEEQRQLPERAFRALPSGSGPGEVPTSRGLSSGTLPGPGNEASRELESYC
Experiment: cell-based or functional assay
MEASURED_PARAMETER: hGIPR cAMP EC50 ratio

BINDER	MEASURED_PARAMETER	VAL
XXEGTFTSDYSIXLDXKAQXEFIEXLIEGGPSSGAPPPS (D-Tyr1; Aib2; αMeL13; Orn16; K17 conjugated to (2-[2-(2-Amino-ethoxy)-ethoxy]-acetyl)2-(γ-Glu)-CO-(CH2)18-CO2H; Aib20; αMeY25; C-terminal amide) [Example 380]	hGIPR cAMP EC50 ratio	0.374 ratio
XXEGTFTSDYSIXLDXKAQXAFIXYLIAGGPSSGAPPPS (D-Tyr1; Aib2; αMeL13; Orn16; K17 conjugated to (2-[2-(2-Amino-ethoxy)-ethoxy]-acetyl)2-(γ-Glu)-CO-(CH2)16-CO2H; Aib20; D-Glu24; C-terminal amide) [Example 363]	hGIPR cAMP EC50 ratio	0.835 ratio
XXEGTFTSDYSIXLDXKAQXAFVEYLIEGGPSSGAPPPS (D-Tyr1; Aib2; αMeL13; Orn16; K17 conjugated to (2-[2-(2-Amino-ethoxy)-ethoxy]-acetyl)2-(γ-Glu)-CO-(CH2)18-CO2H; Aib20; C-terminal amide) [Example 360]	hGIPR cAMP EC50 ratio	0.53 ratio
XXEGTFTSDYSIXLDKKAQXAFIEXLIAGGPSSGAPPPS (D-Tyr1; Aib2; αMeL13; K17 conjugated to (2-[2-(2-Amino-ethoxy)-ethoxy]-acetyl)-(γ-Glu)-CO-(CH2)18-CO2H; Aib20; αMeY25; C-terminal amide) [Example 373]	hGIPR cAMP EC50 ratio	0.287 ratio
XXEGTFTSDYSIXLDXKAQXAFVXYLIAGGPSSGAPPPS (D-Tyr1; Aib2; αMeL13; Orn16; K17 conjugated to (2-[2-(2-Amino-ethoxy)-ethoxy]-acetyl)2-(γ-Glu)-CO-(CH2)16-CO2H; Aib20; D-Glu24; C-terminal amide) [Example 364]	hGIPR cAMP EC50 ratio	0.347 ratio
XXEGTFTSDYSIXLDKKAQXEFIEYLIAGGPSSGAPPPS (D-Tyr1; Aib2; αMeL13; K17 conjugated to (2-[2-(2-Amino-ethoxy)-ethoxy]-acetyl)-(γ-Glu)-CO-(CH2)18-CO2H; Aib20; C-terminal amide) [Example 378]	hGIPR cAMP EC50 ratio	0.793 ratio
